Test system: U-2932
Assay: growth inhibition by drug alone (1 - RLU/untreated control) (fraction); higher = stronger inhibition
Settings: 1000 nM; time (day): 6; 177Lu-lilotomab satetraxetan 0 ug/ml
measurement.name: growth inhibition by drug alone
The response must contain the number and no unit.

• NC(=O)c1ccc2nc(-c3ccc(Oc4ccc(Cl)cc4)cc3)[nH]c2c1 = -0.129

Ask: Could you share which growth inhibition by drug alone value was measured for CC(=O)Nc1cccc(-n2c(=O)n(C3CC3)c(=O)c3c(Nc4ccc(I)cc4F)n(C)c(=O)c(C)c32)c1 ?
Reply: 0.243

Ask: Would you kindly share the measured growth inhibition by drug alone for Nc1nc(Cl)nc2c1ncn2[C@H]1C[C@H](O)[C@@H](CO)O1 [Cladribine] ?
Reply: 0.987

Ask: GET /values?readout=growth inhibition by drug alone&item= Cn1cnc([N+](=O)[O-])c1Sc1ncnc2[nH]cnc12 [Azathioprine (Azasan, Imuran)]
Reply: 0.131

Ask: What measured growth inhibition by drug alone goes with COc1cc2ncnc(-n3nc(-c4ccccn4)nc3N)c2cc1OC ?
Reply: -0.164

Ask: I have this compound here, CC[C@H](CO)Nc1nc(NCc2ccccc2)c2ncn(C(C)C)c2n1 [Roscovitine (Seliciclib, CYC202)] , and I need its recorded growth inhibition by drug alone.
Reply: -0.195

Ask: Return reported growth inhibition by drug alone; argument: Cc1ccnc(NS(=O)(=O)c2ccc(NC(=O)Nc3ccc(S(=O)(=O)Nc4nccc(C)n4)cc3)cc2)n1
Reply: -0.0262

Ask: Could you share which growth inhibition by drug alone value was measured for CN(C)c1nc(N(C)C)nc(N(C)C)n1 [Altretamine (Hexalen)] ?
Reply: 0.0216

Ask: What value of growth inhibition by drug alone has been reported for the following compound? Cc1cnc(-c2cnc(NCCNc3ccc(C#N)cn3)nc2-c2ccc(Cl)cc2Cl)[nH]1
Reply: -0.197
